Entry source: ChEMBL document CHEMBL4483862

test system: Plasmodium berghei; assay: Luciferase/luciferin-expressing antifolate-resistant parasites were used to infect a culture of HepG2 cells that were pre-incubated with compounds. Infected hepatocytes emit light due to the luciferase reaction. Assay results are presented as the percent inhibition of light emission compared to control. […]; format: functional; settings: sporozoite, HEPG2TOX_HILL_SLOPE 3.46, HEPG2TOX_R_SQUARED 0.703, PBLUC_HILL_SLOPE 8.9, PBLUC_R_SQUARED 0.737, read-out: LUCIFERASE INFECTION ASSAY - IC50
propertyMeasured: IC50 (µM)
The answer is to be given in µM; state only the numeric part.

(Q) GET /values?readout=IC50&item= COc1ccc(-c2cnc3cnc(-c4ccsc4)cn23)cc1
(A) 3.76
